# targetEntity: Mu-type opioid receptor (Mus musculus)
# Sequence (P42866 whole entry): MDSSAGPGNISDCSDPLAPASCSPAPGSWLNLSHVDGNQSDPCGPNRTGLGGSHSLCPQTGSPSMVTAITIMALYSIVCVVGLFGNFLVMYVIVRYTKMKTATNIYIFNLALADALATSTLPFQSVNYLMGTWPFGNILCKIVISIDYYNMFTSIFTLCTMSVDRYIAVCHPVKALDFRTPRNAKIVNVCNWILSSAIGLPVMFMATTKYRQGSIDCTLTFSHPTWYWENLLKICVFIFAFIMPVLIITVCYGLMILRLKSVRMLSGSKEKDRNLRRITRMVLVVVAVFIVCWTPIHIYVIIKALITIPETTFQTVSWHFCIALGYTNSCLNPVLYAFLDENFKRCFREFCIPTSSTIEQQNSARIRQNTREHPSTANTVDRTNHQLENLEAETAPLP
# assaySummary: Displacement of [3H]DAMGO from mu opioid receptor in mouse whole brain devoid of cerebellum
Some compounds, each annotated with its measured pKi.
In plain terms, pKi is the concentration in mol/L turned into minus its base-10 logarithm.

| smi | targetEntity | quantitativeResult |
| --- | --- | --- |
| O=C(C[C@H]1N(CC2CC2)[C@@]23CC[C@]1(O)[C@@H]1Oc4c(O)ccc5c4[C@]12CCN(CC1CC1)[C@@H]3C5)NCc1ccccc1 | Mu-type opioid receptor (Mus musculus) | 9.34 |
| O=C(NCc1ccccc1)[C@H]1N[C@@]23CC[C@]1(O)[C@@H]1Oc4c(O)ccc5c4[C@@]12CCN(CC1CC1)[C@@H]3C5 | Mu-type opioid receptor (Mus musculus) | 9.62 |
| O=C(Nc1ccccc1)[C@@H]1N(Cc2ccccc2)[C@@]23CC[C@]1(O)[C@@H]1Oc4c(O)ccc5c4[C@@]12CCN(CC1CC1)[C@@H]3C5 | Mu-type opioid receptor (Mus musculus) | 8.55 |
| O=C(Nc1ccccc1)[C@H]1N[C@@]23CC[C@]1(O)[C@@H]1Oc4c(O)ccc5c4[C@@]12CCN(CC1CC1)[C@@H]3C5 | Mu-type opioid receptor (Mus musculus) | 9.62 |
| O=C(Nc1ccccc1)[C@H]1N(CC(F)(F)F)[C@@]23CC[C@]1(O)[C@@H]1Oc4c(O)ccc5c4[C@@]12CCN(CC1CC1)[C@@H]3C5 | Mu-type opioid receptor (Mus musculus) | 7.98 |

Next, consider the following compound.
Qu. Would you mind telling me what pKi value was observed for CC(=O)N1[C@@H](C(=O)Nc2ccccc2)[C@]2(O)CC[C@]13[C@H]1Cc4ccc(O)c5c4[C@@]3(CCN1CC1CC1)[C@H]2O5 ?
Ans. 9.32
